# System Name: UniProt:P28571
# Assay Protocol: Glycine uptake inhibition assay (mGlyT-1b)
# Experimental Conditions: inhibition of [3H]-glycine uptake in Flp-in-CHO cells transfected with mGlyT-1b cDNA
# note: boundary value 0.3 µM maps to Condition not met; IC50 below it maps to Condition met

These solved cases illustrate the format of a correct answer.
[
  {
    "Molecule": "CS(=O)(=O)c1ccc(OC2CCCC2)c(C(=O)N2CCN(c3cnc4ccccc4n3)CC2)c1 [Example 1.25]",
    "System Name": "UniProt:P28571",
    "Group Label": "Condition met"
  },
  {
    "Molecule": "CCOc1ccc2nc(N3CCN(C(=O)c4cc(S(C)(=O)=O)ccc4OC(C)C)CC3)sc2c1 [Example 1.15]",
    "System Name": "UniProt:P28571",
    "Group Label": "Condition not met"
  },
  {
    "Molecule": "C[C@H](Oc1ccc(S(C)(=O)=O)cc1C(=O)N1CCN(c2nsc3ccccc23)CC1)C(F)(F)F [Example 1.33]",
    "System Name": "UniProt:P28571",
    "Group Label": "Condition met"
  },
  {
    "Molecule": "CS(=O)(=O)c1ccc(OC2CCCC2)c(C(=O)N2CCN(c3ccc4cc(Cl)ccc4n3)CC2)c1 [Example 1.22]",
    "System Name": "UniProt:P28571",
    "Group Label": "Condition not met"
  },
  {
    "Molecule": "CC(C)COc1ccc(S(C)(=O)=O)cc1C(=O)N1CCN(c2cnc3ccccc3c2)CC1 [Example 1.27]",
    "System Name": "UniProt:P28571",
    "Group Label": "Condition met"
  }
]

A record lists CC(C)Oc1ccc(S(C)(=O)=O)cc1C(=O)N1CCN(c2nc3cc(Cl)ccc3s2)CC1 [Example 1.14] . Is its IC50 below 0.3 µM?
Condition met

Queued: CS(=O)(=O)c1ccc(OC2CCCC2)c(C(=O)N2CCN(c3nc4ccccc4o3)CC2)c1 [Example 1.4]
Condition met

Queued: CC(C)Oc1ccc(S(C)(=O)=O)cc1C(=O)N1CCN(c2nc3c([N+](=O)[O-])cccc3s2)CC1 [Example 1.12]
Condition not met

Queued: CC(C)Oc1ccc(S(C)(=O)=O)cc1C(=O)N1CCN(c2cnc3ccccc3n2)CC1 [Example 1.24]
Condition met

Queued: COc1ccc2nc(N3CCN(C(=O)c4cc(S(C)(=O)=O)ccc4OC(C)C)CC3)sc2c1 [Example 1.8]
Condition met

Queued: CC(C)COc1ccc(S(C)(=O)=O)cc1C(=O)N1CCN(c2nc3ccccc3o2)CC1 [Example 1.5]
Condition met

Queued: C[C@H](Oc1ccc(S(C)(=O)=O)cc1C(=O)N1CCN(c2nc3ccc(Cl)cc3s2)CC1)C(F)(F)F [Example 1.40]
Condition met

Queued: CC(C)Oc1ccc(S(C)(=O)=O)cc1C(=O)N1CCN(c2nc3ccc([N+](=O)[O-])cc3s2)CC1 [Example 1.9]
Condition met

Queued: O=C(c1cc([N+](=O)[O-])ccc1N1CCOCC1)N1CCN(c2nc3ccc(Cl)cc3s2)CC1 [Example 1.1]
Condition met

Queued: CC(C)COc1ccc(S(C)(=O)=O)cc1C(=O)N1CCN(c2cnc3ccccc3n2)CC1 [Example 1.23]
Condition met

Queued: CC(C)Oc1ccc(S(C)(=O)=O)cc1C(=O)N1CCN(c2nc3c(O)cccc3s2)CC1 [Example 1.13]
Condition met

---

# System Name: mGlyT-1b (Mus musculus, UniProt P28571)
# Sequence (P28571 1-651 isoform P28571-2): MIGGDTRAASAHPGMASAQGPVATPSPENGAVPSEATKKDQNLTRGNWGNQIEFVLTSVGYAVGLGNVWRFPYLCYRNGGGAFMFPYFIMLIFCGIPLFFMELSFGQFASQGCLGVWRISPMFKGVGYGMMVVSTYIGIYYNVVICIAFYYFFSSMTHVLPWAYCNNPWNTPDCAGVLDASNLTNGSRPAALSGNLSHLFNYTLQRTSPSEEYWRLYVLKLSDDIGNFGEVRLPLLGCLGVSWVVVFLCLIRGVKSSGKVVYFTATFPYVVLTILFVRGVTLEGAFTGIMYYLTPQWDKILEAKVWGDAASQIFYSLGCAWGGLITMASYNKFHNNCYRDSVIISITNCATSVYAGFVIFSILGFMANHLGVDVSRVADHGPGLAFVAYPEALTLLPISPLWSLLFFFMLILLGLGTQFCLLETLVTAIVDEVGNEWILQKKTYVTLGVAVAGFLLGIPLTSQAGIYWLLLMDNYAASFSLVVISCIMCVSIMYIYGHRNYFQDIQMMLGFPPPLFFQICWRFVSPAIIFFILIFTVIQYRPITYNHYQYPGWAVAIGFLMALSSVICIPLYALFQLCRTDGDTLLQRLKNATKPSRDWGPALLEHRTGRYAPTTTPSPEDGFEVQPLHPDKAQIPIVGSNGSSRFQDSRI
# Assay Protocol: Glycine uptake inhibition assay (mGlyT-1b)
# Experimental Conditions: inhibition of [3H]-glycine uptake in Flp-in-CHO cells transfected with mGlyT-1b cDNA
Below, each entry is listed with its recorded IC50.
Could you give me the number in nM? Just the number is fine.

[
  {
    "Molecule": "Cc1nc2cc(N3CCN(C(=O)c4cc(S(C)(=O)=O)ccc4OCC(C)C)CC3)ccc2s1 [Example 1.17]",
    "Unit Tag": "nM",
    "IC50": 440
  }
]

Quick check: IC50 of O=C(c1cc([N+](=O)[O-])ccc1N1CCOCC1)N1CCN(c2nsc3ccccc23)CC1 [Example 1.31] ?
467

---

# System Name: mGlyT-1b (Mus musculus)
# Assay Protocol: Glycine uptake inhibition assay (mGlyT-1b)
# Experimental Conditions: inhibition of [3H]-glycine uptake in Flp-in-CHO cells transfected with mGlyT-1b cDNA
Quantity: pIC50
Conceptually, pIC50 converts a concentration in mol/L into minus its log10.

Here is how some compounds turned out for pIC50.
[
  {
    "Chemical String": "CC(C)COc1ccc(S(C)(=O)=O)cc1C(=O)N1CCN(c2ccc3ccccc3n2)CC1",
    "pIC50": 7.11
  },
  {
    "Chemical String": "CS(=O)(=O)c1ccc(OCC2CC2)c(C(=O)N2CCN(c3nc4ccc(Cl)cc4s3)CC2)c1",
    "pIC50": 6.64
  }
]

# get_value(readout= pIC50, system= mGlyT-1b (Mus musculus)) for CC(C)Oc1ccc(S(C)(=O)=O)cc1C(=O)N1CCN(c2nc3ccc(Cl)cc3s2)CC1
6.40

Queued: CS(=O)(=O)c1ccc(OC2CCCC2)c(C(=O)N2CCN(c3cnc4ccccc4c3)CC2)c1
6.83

Queued: CC(C)Oc1ccc(S(C)(=O)=O)cc1C(=O)N1CCN(c2nsc3ccccc23)CC1
6.30

Queued: COc1cccc2sc(N3CCN(C(=O)c4cc(S(C)(=O)=O)ccc4OC(C)C)CC3)nc12
6.83
